Parameter: MIC. Scope: all listed entries.
# System: Candida albicans A9540
# TEST SUMMARY: MIC, two-fold agar dilution, C. albicans A9540
# Format: cell-based
# CONDITION LABEL: Candida albicans A9540; YMA pH 7.0, 28° C., 40 hours; read-out: MIC
Report only the number, with the unit mg/L understood.

COMPOUND	DISPLAY UNIT	ENDPOINT RESULT
CN[C@@H]1[C@H](O[C@@H]2OC[C@@H](O)[C@H](O)[C@H]2O)[C@@H](O)[C@H](O[C@H]2c3cc(C)c(C(=O)N[C@H](C)C(=O)O)c(O)c3-c3c(cc4c(c3O)C(=O)c3cc(OC)cc(O)c3C4=O)[C@@H]2O)O[C@@H]1C [Pradimicin A, reference compound]	mg/L	12.5
COc1cc(O)c2c(c1)C(=O)c1c(cc3c(c1O)-c1c(cc(C)c(C(=O)N[C@H](C)C(=O)O)c1O)[C@H](O[C@@H]1O[C@H](C)[C@H](NC=N)[C@H](O[C@@H]4OC[C@@H](O)[C@H](O)[C@H]4O)[C@H]1O)[C@H]3O)C2=O [KHM-9, 4'-Amidinopradimicin C]	mg/L	12.5

Data point: COc1cc(O)c2c(c1)C(=O)c1c(cc3c(c1O)-c1c(cc(C)c(C(=O)N[C@H](CO)C(=O)O)c1O)[C@H](O[C@@H]1O[C@H](C)[C@H](NC#N)[C@H](O[C@@H]4OC[C@@H](O)[C@H](O)[C@H]4O)[C@H]1O)[C@H]3O)C2=O [KHM-4, 4'-N-Cyanopradimicin FA2] ; MIC = 6.3

Data point: CN[C@@H]1[C@H](O[C@@H]2OC[C@@H](O)[C@H](O)[C@H]2O)[C@@H](O)[C@H](O[C@H]2c3cc(C)c(C(=O)N[C@H](CO)C(=O)O)c(O)c3-c3c(cc4c(c3O)C(=O)c3cc(OC)cc(O)c3C4=O)[C@@H]2O)O[C@@H]1C [Pradimicin FA-1, reference compound] ; MIC = 6.3

All values here come from patent US6281342A.
